- targetDesc: human recombinant A1 adenosine receptor (Homo sapiens)
- Sequence (P30542 whole entry): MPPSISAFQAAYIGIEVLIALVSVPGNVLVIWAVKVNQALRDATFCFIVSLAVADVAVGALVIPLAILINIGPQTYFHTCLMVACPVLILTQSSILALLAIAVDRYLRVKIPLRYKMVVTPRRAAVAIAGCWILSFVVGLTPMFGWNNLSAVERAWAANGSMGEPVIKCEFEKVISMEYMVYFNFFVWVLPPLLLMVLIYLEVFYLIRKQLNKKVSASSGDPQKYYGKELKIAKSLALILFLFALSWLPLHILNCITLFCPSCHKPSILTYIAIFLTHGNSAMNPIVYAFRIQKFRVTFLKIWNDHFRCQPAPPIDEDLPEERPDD
- assayComment: Adenosine A1 receptor binding, displacement of [^3H]CCPA in transfected CHO cells
quantityKind: pKi
Please treat pKi as minus the base-10 logarithm of the molar concentration.

query: # input compound: `OC[C@H]1O[C@@H](n2cnc3c(NC4(CO)CCCC4)ncnc32)[C@H](O)[C@@H]1O` ; wanted: its pKi
result: 8.17

Next item in the queue.
query: # input compound: `OC[C@H]1O[C@@H](n2cnc3c(NC4(CO)CCCC4)nc(Cl)nc32)[C@H](O)[C@@H]1O` ; wanted: its pKi
result: 8.19

----------
Listing of entries alongside the reported pKi.
- targetDesc: human recombinant A2A adenosine receptor (Homo sapiens, UniProt P29274)
- Construct: expressed in transfected cells
- Sequence (P29274 whole entry): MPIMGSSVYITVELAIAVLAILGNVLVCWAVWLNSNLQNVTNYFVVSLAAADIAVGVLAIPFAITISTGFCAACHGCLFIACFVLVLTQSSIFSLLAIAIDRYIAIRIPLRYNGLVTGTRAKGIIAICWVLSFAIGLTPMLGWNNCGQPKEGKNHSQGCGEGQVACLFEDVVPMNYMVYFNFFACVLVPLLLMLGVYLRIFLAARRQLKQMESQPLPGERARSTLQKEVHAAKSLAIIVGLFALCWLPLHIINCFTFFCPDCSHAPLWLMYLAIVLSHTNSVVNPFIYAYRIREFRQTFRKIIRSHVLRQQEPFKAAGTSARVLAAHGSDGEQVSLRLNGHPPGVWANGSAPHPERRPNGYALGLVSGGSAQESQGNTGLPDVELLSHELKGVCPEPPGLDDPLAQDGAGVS
- assayComment: Adenosine A2A receptor binding, displacement of [^3H]NECA in transfected CHO cells
Please treat pKi as minus the base-10 logarithm of the molar concentration.

query: State its pKi on human recombinant A2A adenosine receptor (Homo sapiens, UniProt P29274): `OC[C@H]1O[C@@H](n2cnc3c(NC4(CO)CCCC4)nc(Cl)nc32)[C@H](O)[C@@H]1O`
result: 4.62

Next item in the queue.
query: State its pKi on human recombinant A2A adenosine receptor (Homo sapiens, UniProt P29274): `OC[C@H]1O[C@@H](n2cnc3c(NC4(CO)CCCC4)ncnc32)[C@H](O)[C@@H]1O`
result: 4.55

Every entry's value here was drawn from patent US7732424B2.
